system under test: PI3Kdelta (Homo sapiens (Human))
assay explanation: HTRF PI3K biochemical assay, delta isoform
settings: 0.3 nM enzyme, 100 uM ATP, 5 uM PIP2, form screened per table
pIC50: −log10 of the molar value.
quantity measured: pIC50

Below are worked cases with known answers.
Input: Please look up its pIC50: CSc1cnc(N2CCN(C(=O)C3CC3)[C@H](C)C2)nc1-c1cnn(C)c1 [Compound 5-10]
Output: 6.47

Input: Please look up its pIC50: C[C@@H]1CN(c2nc(-c3cnn(C(F)F)c3)ncc2C#N)CCN1C(=O)C1CC1 [Compound 6-30]
Output: 6.48

[a] Cn1cc(-c2ncc(C#N)c(N3CC4C[C@H]3CN4c3cccc(C4(C)CC4)c3)n2)cn1 (stereo in doubt) [Compound 1-12]
[b] C[C@@H]1CN(c2nc(CCC(F)(F)F)c(C#N)c(-c3cnn(C)c3)n2)CCN1C(=O)C1CC1 [Compound 6-26]
Input: Which value of pIC50 is greater, the one for a or the one for b ? Record your answer as the label of the chosen record.
Output: b

----------
system under test: PI3Kdelta (Homo sapiens (Human))
assay explanation: HTRF PI3K biochemical assay, delta isoform
settings: 0.3 nM enzyme, 100 uM ATP, 5 uM PIP2, form screened per table
pIC50: −log10 of the molar value.
quantity measured: pIC50

Below are worked cases with known answers.
Input: Please look up its pIC50: Cn1cc(-c2ncc(C#N)c(N3CC4C[C@H]3CN4c3cccc(C4CC4)c3)n2)cn1 (stereo in doubt) [Compound 1-11]
Output: 6.89

Input: Please look up its pIC50: CCCS(=O)(=O)N1C[C@@H]2CC1CN2c1nc(-c2cnn(C)c2)ncc1C#N (stereo in doubt) [Compound 2-14]
Output: 6.21

Input: Please look up its pIC50: Cn1cc(-c2ncc(C#N)c(N3CC4C[C@H]3CN4C(=O)c3cccs3)n2)cn1 (stereo in doubt) [Compound 2-10]
Output: 6.30

[1] CC(=O)Nc1nc(-c2cnn(C)c2)nc(N2CCN(C(=O)C3CC3)[C@H](C)C2)c1C#N [Compound 6-3]
[2] CC(C)C#Cc1cnc(N2CCN(C(=O)C3CC3)[C@H](C)C2)nc1-c1cnn(C)c1 [Compound 5-8]
[3] Cn1cc(-c2ncc(C#N)c(N3CC4C[C@H]3CN4c3cccnc3)n2)cn1 (stereo in doubt) [Compound 1-6]
[4] CC(C)C[C@@H]1CN(c2nc(-c3cnn(C)c3)ncc2C#N)CCN1C(=O)C1CC1 [Compound 5-6]
Input: Sort by pIC50, descending. Hello, could you send the labels back in the order asked? Thank you.
Output: 2, 3, 4, 1
(2: 7.92, 3: 6.96, 4: 6.72, 1: 6.32)

----------
system under test: PI3Kdelta (Homo sapiens (Human))
assay explanation: HTRF PI3K biochemical assay, delta isoform
settings: 0.3 nM enzyme, 100 uM ATP, 5 uM PIP2, form screened per table
pIC50: −log10 of the molar value.
quantity measured: pIC50

Below are worked cases with known answers.
Input: // lookup pIC50 | system=PI3Kdelta (Homo sapiens (Human)) | key= Cn1cc(-c2ncc(C#N)c(N3CCN(C(=O)C4CC4)[C@H](CO)C3)n2)cn1 [Compound 5-7]
Output: 6.12

Input: // lookup pIC50 | system=PI3Kdelta (Homo sapiens (Human)) | key= CNC(=O)c1cccc(N2C[C@@H]3CC2CN3c2nc(-c3cnn(C)c3)ncc2C#N)c1 (stereo in doubt) [Compound 1-13]
Output: 7.01

[a] Cn1cc(-c2ncc(C#N)c(N3CC4C[C@H]3CN4C(=O)C3(C)COC3)n2)cn1 (stereo in doubt) [Compound 2-7]
[b] Cn1cc(-c2ncc(C#N)c(N3CC4C[C@H]3CN4CC3CC3)n2)cn1 (stereo in doubt) [Compound 2-3]
Input: Which value of pIC50 is greater, the one for a or the one for b ? Record your answer as the label of the chosen record.
Output: a

----------
system under test: PI3Kdelta (Homo sapiens (Human), UniProt O00329)
Sequence (O00329 whole entry, canonical isoform): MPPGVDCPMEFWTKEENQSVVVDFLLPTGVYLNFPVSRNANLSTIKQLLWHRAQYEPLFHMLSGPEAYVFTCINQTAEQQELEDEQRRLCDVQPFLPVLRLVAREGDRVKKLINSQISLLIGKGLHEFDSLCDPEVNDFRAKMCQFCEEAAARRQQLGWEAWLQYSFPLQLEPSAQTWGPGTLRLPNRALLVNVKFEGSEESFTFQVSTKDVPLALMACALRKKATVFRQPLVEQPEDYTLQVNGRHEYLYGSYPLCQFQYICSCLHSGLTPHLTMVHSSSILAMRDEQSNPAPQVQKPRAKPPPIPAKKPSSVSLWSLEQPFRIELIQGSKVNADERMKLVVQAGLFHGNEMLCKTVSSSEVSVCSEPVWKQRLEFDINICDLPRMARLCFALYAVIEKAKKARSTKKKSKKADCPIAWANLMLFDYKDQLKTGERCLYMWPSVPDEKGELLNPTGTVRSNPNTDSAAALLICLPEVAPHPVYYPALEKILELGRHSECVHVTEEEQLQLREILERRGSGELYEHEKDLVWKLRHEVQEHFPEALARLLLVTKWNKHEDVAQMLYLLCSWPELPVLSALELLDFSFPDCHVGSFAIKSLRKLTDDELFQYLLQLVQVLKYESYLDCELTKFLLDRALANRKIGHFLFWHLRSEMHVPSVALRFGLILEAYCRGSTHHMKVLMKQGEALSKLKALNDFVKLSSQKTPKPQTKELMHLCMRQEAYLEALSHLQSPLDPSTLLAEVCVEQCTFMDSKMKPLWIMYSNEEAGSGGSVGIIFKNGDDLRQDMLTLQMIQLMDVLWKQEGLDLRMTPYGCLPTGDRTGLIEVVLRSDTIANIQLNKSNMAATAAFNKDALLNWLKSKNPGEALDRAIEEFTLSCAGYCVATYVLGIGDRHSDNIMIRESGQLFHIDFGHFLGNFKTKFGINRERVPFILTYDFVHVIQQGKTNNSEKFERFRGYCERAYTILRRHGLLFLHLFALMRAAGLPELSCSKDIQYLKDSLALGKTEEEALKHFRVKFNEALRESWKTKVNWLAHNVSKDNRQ
Sequence (P27986 whole entry partner, canonical isoform): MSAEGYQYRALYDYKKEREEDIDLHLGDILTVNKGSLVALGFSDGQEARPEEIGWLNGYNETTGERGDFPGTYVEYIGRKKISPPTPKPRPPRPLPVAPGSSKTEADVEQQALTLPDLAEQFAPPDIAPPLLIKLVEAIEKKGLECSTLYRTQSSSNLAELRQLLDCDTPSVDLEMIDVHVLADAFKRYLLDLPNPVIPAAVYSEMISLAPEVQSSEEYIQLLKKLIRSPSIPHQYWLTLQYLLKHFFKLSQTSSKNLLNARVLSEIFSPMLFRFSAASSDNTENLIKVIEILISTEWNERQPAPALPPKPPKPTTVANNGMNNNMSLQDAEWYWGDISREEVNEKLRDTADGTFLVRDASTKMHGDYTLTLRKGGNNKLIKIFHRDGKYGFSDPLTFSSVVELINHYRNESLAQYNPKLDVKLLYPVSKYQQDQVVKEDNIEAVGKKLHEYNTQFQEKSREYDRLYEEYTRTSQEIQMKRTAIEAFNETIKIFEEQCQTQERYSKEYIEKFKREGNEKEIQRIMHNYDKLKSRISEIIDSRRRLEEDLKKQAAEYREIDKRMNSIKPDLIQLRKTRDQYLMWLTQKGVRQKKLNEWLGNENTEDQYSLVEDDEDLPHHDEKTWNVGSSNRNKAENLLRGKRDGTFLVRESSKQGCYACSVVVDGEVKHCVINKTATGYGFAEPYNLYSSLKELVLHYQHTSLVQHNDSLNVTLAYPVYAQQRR
assay explanation: HTRF PI3K biochemical assay, delta isoform
settings: 0.3 nM enzyme, 100 uM ATP, 5 uM PIP2, form screened per table
pIC50: −log10 of the molar value.
quantity measured: pIC50

Below are worked cases with known answers.
Input: Please look up its pIC50: N#Cc1cnc(-c2cnn3ccccc23)nc1N1C[C@@H]2CC1CN2c1cccc(F)c1 (stereo in doubt) [Compound 1-2]
Output: 7.29

Input: Please look up its pIC50: Cn1cc(-c2ncc(C#N)c(N3CC4C[C@H]3CN4c3ccc(C(F)F)nc3)n2)cn1 (stereo in doubt) [Compound 1-4]
Output: 6.27

[P] C[C@@H]1CN(c2nc(-c3cnn(C)c3)nc(NC3CCC3)c2C#N)CCN1C(=O)C1CC1 [Compound 6-7]
[Q] N#Cc1cnc(-c2cnc3[nH]ccc3c2)nc1N1C[C@@H]2CC1CN2c1cccc(F)c1 (stereo in doubt) [Compound 1-18]
Input: Which value of pIC50 is greater, the one for P or the one for Q ? Record your answer as the label of the chosen record.
Output: P

----------
Each entry below lists one item and its recorded Selectivity versus PI3Kalpha value.
system under test: PI3Kalpha (Homo sapiens (Human), UniProt P42336)
Sequence (P42336 whole entry, canonical isoform): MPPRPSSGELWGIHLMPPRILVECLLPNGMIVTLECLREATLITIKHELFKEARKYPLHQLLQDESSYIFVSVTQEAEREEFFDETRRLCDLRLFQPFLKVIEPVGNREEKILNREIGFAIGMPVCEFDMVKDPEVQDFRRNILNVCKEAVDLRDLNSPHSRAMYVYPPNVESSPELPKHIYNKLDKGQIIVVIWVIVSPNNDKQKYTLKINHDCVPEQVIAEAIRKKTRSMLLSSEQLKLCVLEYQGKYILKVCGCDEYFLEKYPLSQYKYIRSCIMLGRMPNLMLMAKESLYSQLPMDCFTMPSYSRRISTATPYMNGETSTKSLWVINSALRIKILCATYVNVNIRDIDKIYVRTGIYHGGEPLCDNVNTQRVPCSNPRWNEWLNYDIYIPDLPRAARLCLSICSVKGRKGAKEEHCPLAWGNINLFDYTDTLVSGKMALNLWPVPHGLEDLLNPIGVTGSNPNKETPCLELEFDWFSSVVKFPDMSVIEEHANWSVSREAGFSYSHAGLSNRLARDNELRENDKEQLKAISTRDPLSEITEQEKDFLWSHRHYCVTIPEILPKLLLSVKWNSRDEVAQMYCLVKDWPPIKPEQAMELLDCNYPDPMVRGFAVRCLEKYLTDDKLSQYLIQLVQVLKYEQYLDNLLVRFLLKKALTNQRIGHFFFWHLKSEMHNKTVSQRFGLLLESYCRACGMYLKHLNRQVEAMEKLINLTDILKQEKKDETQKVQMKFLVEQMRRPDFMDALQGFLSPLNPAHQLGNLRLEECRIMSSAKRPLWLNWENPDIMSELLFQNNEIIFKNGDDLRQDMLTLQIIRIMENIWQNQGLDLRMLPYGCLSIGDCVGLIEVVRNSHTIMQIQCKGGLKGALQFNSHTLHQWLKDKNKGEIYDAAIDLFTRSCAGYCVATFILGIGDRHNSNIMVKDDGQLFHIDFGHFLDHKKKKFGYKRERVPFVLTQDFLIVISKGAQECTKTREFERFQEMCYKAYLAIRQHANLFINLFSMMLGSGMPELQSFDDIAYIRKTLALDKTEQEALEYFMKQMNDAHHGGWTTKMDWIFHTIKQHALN
Sequence (P27986 whole entry partner, canonical isoform): as the sequence (P27986 whole entry partner, canonical isoform) above
assay explanation: HTRF PI3K biochemical assay, alpha isoform (selectivity versus delta)
settings: relative ratio PI3K-alpha IC50 value / PI3K-delta IC50 value
Text: HTRF PI3K Biochemical Assay to Measure Intrinsic Potency of Compound Inhibitors The PI3-Kinase biochemical assays were developed to measure the intrinsic potency and compound dependent inhibition of the alpha, beta, delta, and gamma PI3K isoform enzymes. […]

Below are worked cases with known answers.
Input: Please look up its Selectivity versus PI3Kalpha: Cc1nn(C)cc1-c1ncc(C#N)c(N2CCN(C(=O)C3CC3)[C@H](C)C2)n1
Output: >10

Input: Please look up its Selectivity versus PI3Kalpha: Cn1cc(-c2ncc(C#N)c(N3CCN(C(=O)C4CC4)[C@H](CO)C3)n2)cn1
Output: >10

Input: Please look up its Selectivity versus PI3Kalpha: N#Cc1cnc(-c2cnc3[nH]ccc3c2)nc1N1C[C@@H]2CC1CN2c1cccc(F)c1 (stereo in doubt)
Output: 8

New cases:
Input: Please look up its Selectivity versus PI3Kalpha: Cc1cncc(-c2ncc(C#N)c(N3C[C@@H]4CC3CN4c3cccc(F)c3)n2)c1 (stereo in doubt)
Output: >10

Input: Please look up its Selectivity versus PI3Kalpha: COCCc1nc(N2CCN(C(=O)C3CC3)[C@H](C)C2)nc(-c2cnn(C)c2)c1C#N
Output: >10

Input: Please look up its Selectivity versus PI3Kalpha: CC(C)Nc1nc(-c2cnn(C)c2)nc(N2CCN(C(=O)C3CC3)[C@H](C)C2)c1C#N
Output: >10

Input: Please look up its Selectivity versus PI3Kalpha: C[C@@H]1CN(c2nc(-c3cnn(C)c3)ncc2C#N)CCN1c1cccc(S(C)(=O)=O)c1
Output: >10

Input: Please look up its Selectivity versus PI3Kalpha: Cn1cc(-c2ncc(C#N)c(N3CCN(c4cccc(F)c4)CC3)n2)cn1
Output: 7

Input: Please look up its Selectivity versus PI3Kalpha: C[C@@H]1CN(c2nc(-c3cnn(C)c3)ncc2Cl)CCN1C(=O)C1CC1
Output: >10

Input: Please look up its Selectivity versus PI3Kalpha: C[C@@H]1CN(c2nc(-c3cnn(C)c3)nc(OCC(F)(F)F)c2C#N)CCN1C(=O)C1CC1
Output: >10

Input: Please look up its Selectivity versus PI3Kalpha: Cn1cc(-c2ncc(C#N)c(N3CC4C[C@H]3CN4c3cccc(C#N)c3)n2)cn1 (stereo in doubt)
Output: >10

Input: Please look up its Selectivity versus PI3Kalpha: N#Cc1cnc(-c2cccc3[nH]ncc23)nc1N1C[C@@H]2CC1CN2c1cccc(F)c1 (stereo in doubt)
Output: 9

Input: Please look up its Selectivity versus PI3Kalpha: Cn1cc(-c2ncc(C#N)c(N3CC4C[C@H]3CN4c3cccc(C4(C)CC4)c3)n2)cn1 (stereo in doubt)
Output: >10

Input: Please look up its Selectivity versus PI3Kalpha: C[C@@H]1CN(c2nc(-c3cnn(C)c3CCC(F)(F)F)ncc2C#N)CCN1C(=O)C1CC1
Output: >10

Input: Please look up its Selectivity versus PI3Kalpha: Cn1cc(-c2ncc(C#N)c(N3CC4C[C@H]3CN4CC3CC3)n2)cn1 (stereo in doubt)
Output: 8

Input: Please look up its Selectivity versus PI3Kalpha: Cn1cc(-c2ncc(C#N)c(N3CC4C[C@H]3CN4c3cccc([N+](=O)[O-])c3)n2)cn1 (stereo in doubt)
Output: >10

Input: Please look up its Selectivity versus PI3Kalpha: C[C@@H]1CN(c2nc(-c3cnn(C)c3)nc(NCCC(F)(F)F)c2C#N)CCN1C(=O)C1CC1
Output: >10

Input: Please look up its Selectivity versus PI3Kalpha: CNC(=O)c1cccc(N2C[C@@H]3CC2CN3c2nc(-c3cnn(C)c3)ncc2C#N)c1 (stereo in doubt)
Output: >10

Input: Please look up its Selectivity versus PI3Kalpha: C[C@@H]1CN(c2nc(-c3cnn(C)c3)nc(NCC3COC3)c2C#N)CCN1C(=O)C1CC1
Output: >10

Input: Please look up its Selectivity versus PI3Kalpha: C[C@@H]1CN(c2ncc(C(F)F)c(-c3cnn(C)c3)n2)CCN1C(=O)C1CC1
Output: >10

All values here come from patent US11230547B2.
